# Tested on: E. cloacae expressing the Class C P99+
# test_name: In vitro antibacterial assay of β-lactamase inhibition (broth microdilution MIC), E. cloacae P99+
# Assay type: cell-based
# recorded_conditions: in presence of Ceftazidime 8 μg/ml (Examples 1-56)
Where a name gives a salt, the structure may show the parent alone.
attribute_measured: MIC of example compound, E. cloacae P99+

Consider the reported MIC of example compound, E. cloacae P99+ for these molecules:
- Nc1cc(CC(=O)N[C@@H](Cc2cccc(C(=O)O)c2O)B(O)O)ccn1 [Example 45, formate]: 0.06 µg/mL
- CNCc1cccc(C(=O)N[C@@H](Cc2cccc(C(=O)O)c2O)B(O)O)c1 [Example 21]: 0.25 µg/mL
- CC(C)(O/N=C(\C(=O)N[C@@H](Cc1cccc(C(=O)O)c1O)B(O)O)c1csc(NC(=O)CN)n1)C(=O)O.Cl [Example 50]: >8 µg/mL
- O=C(Cc1ccc(CN2CCCC2)cc1)N[C@@H](Cc1cccc(C(=O)O)c1O)B(O)O [Example 38]: 0.5 µg/mL
- O=C(N[C@@H](Cc1cccc(C(=O)O)c1O)B(O)O)c1cccc(CNc2nccs2)c1 [Example 31]: 2 µg/mL

Could I get MIC of example compound, E. cloacae P99+ for every one of these entries?
1. O=C(Cc1ccc(CN(CCO)CCO)cc1)N[C@@H](Cc1cccc(C(=O)O)c1O)B(O)O [Example 39]
2. CN(C)Cc1cccc(C(=O)N[C@@H](Cc2cccc(C(=O)O)c2O)B(O)O)c1 [Example 27]

*A*
1. 2 µg/mL
2. 0.5 µg/mL

*Q* Return reported MIC of example compound, E. cloacae P99+; argument: Nc1ccc(CC(=O)N[C@@H](Cc2cccc(C(=O)O)c2O)B(O)O)cn1 [Example 46]
*A* 0.06 µg/mL

The reported measurements were obtained from patent US20100292185A1.
